Test system: Enterococcus faecalis
assay.method.text: In vitro minimum inhibitory concentration was measured against Enterococcus faecalis ATCC 29212 strain.
Format: functional
recorded.metric: MIC (µg/mL)
API: value field is a number in µg/mL; no unit string.

# input Which MIC value is on record for O=C(O)C1=C(CN2CCN(c3cc4c(cc3F)c(=O)c(C(=O)O)cn4C3CC3)CC2)CS[C@@H]2[C@H](NC(=O)C(C(=O)O)c3ccccc3)C(=O)N12 (stereo partly specified) ?
# output 32

# input `CO/N=C(\C(=O)N[C@@H]1C(=O)N2C(C(=O)O)=C(CN3CCNCC3)CS[C@H]12)c1csc(N)n1` ?
# output 4

# input `CO/N=C(\C(=O)N[C@@H]1C(=O)N2C(C(=O)O)=C(CN3CCN(c4cc5c(cc4F)c(=O)c(C(=O)O)cn5C4CC4)CC3)CS[C@H]12)c1csc(N)n1` ?
# output 4

# input `CC(C)(O/N=C(\C(=O)N[C@@H]1C(=O)N2C(C(=O)O)=C(CN3CCN(c4cc5c(cc4F)c(=O)c(C(=O)O)cn5C4CC4)CC3)CS[C@H]12)c1csc(N)n1)C(=O)O` ?
# output 8

# input `Nc1nc(/C(=N/OCC(=O)O)C(=O)N[C@@H]2C(=O)N3C(C(=O)O)=C(CN4CCN(c5cc6c(cc5F)c(=O)c(C(=O)O)cn6C5CC5)CC4)CS[C@H]23)cs1` ?
# output 16

# input CC(=O)OCC1=C(C(=O)O)N2C(=O)[C@@H](NC(=O)C(O)c3ccccc3)[C@H]2SC1 (stereo partly specified) ?
# output 16
